// reported percent inhibition of AR per item
# System: AR mRNA
# Protocol Description: Dose-dependent antisense inhibition of human AR in HuVEC cells (electroporation, qRT-PCR RTS3559, IC50)
# Type: cell-based
# Condition Label: 166.7 nM; HuVEC, ~16 h; Table 3
# Experimental: After a treatment period of approximately 16 hours, RNA was isolated from the cells and AR mRNA levels were measured by quantitative real-time PCR. Human AR primer probe set RTS3559 was used to measure mRNA levels. AR mRNA levels were adjusted according to total RNA content, as measured by RIBOGREEN®. […] After a treatment period of approximately 16 hours, RNA was isolated from the cells and AR mRNA levels were measured by quantitative real-time PCR. […]
Oligonucleotides are written 5' to 3', each unit as a sugar letter and its base; * is a phosphorothioate linkage, no mark a phosphodiester; rarer units and linkages stand in square brackets, end groups in braces. Plain capitals give the bases only. k = constrained ethyl (cEt); [5mC] = 5-methylcytosine; d = 2'-deoxy (DNA)
Report the figure in % without appending any unit label.

549362 (k[5mC]*k[5mC]*k[5mC]*dG*dA*dA*dG*d[5mC]*dT*dG*dT*dT*d[5mC]*k[5mC]*k[5mC]*k[5mC]; antisense) [compound 549362]
23

Reported percent inhibition of AR for 549374 (kG*k[5mC]*kG*d[5mC]*dT*dG*d[5mC]*d[5mC]*dG*dT*dA*dG*dT*k[5mC]*k[5mC]*kA; antisense) [compound 549374] : what is it?
59

Quick one: percent inhibition of AR of 549388 (kT*k[5mC]*k[5mC]*d[5mC]*dT*dT*d[5mC]*dA*dG*d[5mC]*dG*dG*d[5mC]*kT*k[5mC]*kT; antisense) [compound 549388] ?
42

---

# Test system: AR mRNA
# Protocol Description: Dose-dependent antisense inhibition of human AR in HuVEC cells (electroporation, qRT-PCR RTS3559, IC50)
# Format: cell-based
# Condition Label: Table 32; 3000.0 nM, HuVEC, electroporation, approximately 16 hours
Oligonucleotides are written 5' to 3', each unit as a sugar letter and its base; * is a phosphorothioate linkage, no mark a phosphodiester; rarer units and linkages stand in square brackets, end groups in braces. Plain capitals give the bases only. k = constrained ethyl (cEt); [5mC] = 5-methylcytosine; d = 2'-deoxy (DNA)
Everything with percent inhibition of AR, 3000.0 nM lower than 90% is false (0); everything else, including exactly 90%, is true (1).

Solved cases below.
549458 (kG*kT*kT*dG*dA*dT*dT*dT*dA*dA*dT*dG*dG*kT*kT*kG) [compound 549458]
true (1)
583759 (antisense kG*k[5mC]*kT*dG*dT*dT*d[5mC]*d[5mC]*dT*d[5mC]*dA*dT*d[5mC]*k[5mC]*kA*kG) [compound 583759]
false (0)

percent inhibition of AR, 3000.0 nM >= 90% for 549372 (kA*kA*kG*dT*dT*dG*dT*dA*dG*dT*dA*dG*dT*k[5mC]*kG*k[5mC]) [compound 549372] ?
false (0)

Quick check: does 583836 (k[5mC]*k[5mC]*kG*dA*dA*dG*d[5mC]*dT*dG*dT*dT*d[5mC]*d[5mC]*k[5mC]*k[5mC]*kT; antisense) [compound 583836] have percent inhibition of AR, 3000.0 nM greater than or equal to 90%?
false (0)

Decide: is the reported value of percent inhibition of AR, 3000.0 nM for 583834 (kA*kG*k[5mC]*dT*dG*dT*dT*d[5mC]*d[5mC]*d[5mC]*d[5mC]*dT*dG*kG*kA*k[5mC]; antisense) [compound 583834] equal to or greater than 90%?
false (0)

---

Reported percent inhibition of AR values for a set of substances
# Tested on: AR mRNA
# Protocol Description: Dose-dependent antisense inhibition of human AR in HuVEC cells (electroporation, qRT-PCR RTS3559, IC50)
# Assay type: cell-based
# Condition Label: 500.0 nM; HuVEC, ~16 h; Table 8
# Procedure: After a treatment period of approximately 16 hours, RNA was isolated from the cells and AR mRNA levels were measured by quantitative real-time PCR. Human AR primer probe set RTS3559 was used to measure mRNA levels. AR mRNA levels were adjusted according to total RNA content, as measured by RIBOGREEN®. […] After a treatment period of approximately 16 hours, RNA was isolated from the cells and AR mRNA levels were measured by quantitative real-time PCR. […]
Oligonucleotides are written 5' to 3', each unit as a sugar letter and its base; * is a phosphorothioate linkage, no mark a phosphodiester; rarer units and linkages stand in square brackets, end groups in braces. Plain capitals give the bases only. e = 2'-O-(2-methoxyethyl) (MOE); k = constrained ethyl (cEt); [5mC] = 5-methylcytosine; d = 2'-deoxy (DNA)
Write down the numeric answer in % and omit the unit.

# annotated cases, reported percent inhibition of AR shown
569236 (antisense eT*kG*kA*kT*dT*dT*dA*dA*dT*dG*dG*kT*kT*kG*e[5mC]*eA) [compound 569236]
84
560137 (antisense TTGATTTAATGGTTGC; all C 5-methyl, all phosphorothioate, sugars by position not given here; further chemistry not fully specified) [compound 560137]
89

Next up:
percent inhibition of AR lookup needed for 549458 (kG*kT*kT*dG*dA*dT*dT*dT*dA*dA*dT*dG*dG*kT*kT*kG) [compound 549458] , thanks.
85

---

# Test system: AR mRNA
# Protocol Description: Dose-dependent antisense inhibition of human AR in HuVEC cells (electroporation, qRT-PCR RTS3559, IC50)
# Assay type: cell-based
# Condition Label: Table 33; HuVEC, electroporation, approximately 16 hours
Oligonucleotides are written 5' to 3', each unit as a sugar letter and its base; * is a phosphorothioate linkage, no mark a phosphodiester; rarer units and linkages stand in square brackets, end groups in braces. Plain capitals give the bases only. k = constrained ethyl (cEt); [5mC] = 5-methylcytosine; d = 2'-deoxy (DNA)
Readout Name: pIC50
Please express pIC50 as -log10 of the molar concentration.

// below: answered substances
549372 (kA*kA*kG*dT*dT*dG*dT*dA*dG*dT*dA*dG*dT*k[5mC]*kG*k[5mC]) [compound 549372]
6.47
583866 (kT*k[5mC]*kT*dT*d[5mC]*dA*dG*dT*dG*d[5mC]*dT*d[5mC]*dT*kT*kG*k[5mC]; antisense) [compound 583866]
6.62
583868 (kA*k[5mC]*kT*d[5mC]*dA*dG*d[5mC]*dA*dG*dT*dA*dT*d[5mC]*kT*kT*k[5mC]; antisense) [compound 583868]
6.39

Given 549458 (kG*kT*kT*dG*dA*dT*dT*dT*dA*dA*dT*dG*dG*kT*kT*kG) [compound 549458] , state its recorded pIC50.
6.89

---

# System: AR mRNA
# Protocol Description: Antisense inhibition of human AR in HuVEC cells, single concentration (electroporation, qRT-PCR RTS3559)
# Assay type: cell-based
# Condition Label: 1,000 nM ASO, ~24 h, Table 13
Oligonucleotides are written 5' to 3', each unit as a sugar letter and its base; * is a phosphorothioate linkage, no mark a phosphodiester; rarer units and linkages stand in square brackets, end groups in braces. Plain capitals give the bases only. e = 2'-O-(2-methoxyethyl) (MOE); k = constrained ethyl (cEt); [5mC] = 5-methylcytosine; d = 2'-deoxy (DNA)
Readout Name: % inhibition (%)
Express it in %; write the number only.

Previously resolved entries follow.
585268 (kA*eA*kG*eT*dT*dG*dT*dA*dG*dT*dA*dG*eT*k[5mC]*eG*k[5mC]) [compound 585268]
72
585269 (eA*kA*eG*kT*dT*dG*dT*dA*dG*dT*dA*dG*eT*k[5mC]*eG*k[5mC]) [compound 585269]
73
569227 (antisense eT*eG*kA*kT*kT*dT*dA*dA*dT*dG*dG*dT*kT*kG*k[5mC]*eA) [compound 569227]
51

Fill in the recorded % inhibition for this substance, with AR mRNA as test system: 585263 (kA*kA*kG*dT*dT*dG*dT*dA*dG*dT*dA*kG*kT*k[5mC]*eG*e[5mC]) [compound 585263]
69

Report % inhibition for 569229 (antisense eG*eT*kT*kG*kA*dT*dT*dT*dA*dA*dT*dG*kG*kT*kT*eG) [compound 569229] tested on AR mRNA.
57

Please state recorded % inhibition (tested on AR mRNA) of 585271 (eA*kA*kG*dT*dT*dG*dT*dA*dG*dT*dA*dG*dT*k[5mC]*kG*e[5mC]) [compound 585271]
57

Return % inhibition measured with AR mRNA given this substance: 549458 (kG*kT*kT*dG*dA*dT*dT*dT*dA*dA*dT*dG*dG*kT*kT*kG) [compound 549458]
87

# value lookup — system AR mRNA, readout % inhibition, item 560133 (antisense kA*kT*kG*dG*dT*dT*dG*dA*dT*dT*dT*dA*kA*kT*kG*eG) [compound 560133]
53

For the record 560132 (antisense kG*kT*kT*dG*dA*dT*dT*dT*dA*dA*dT*dG*kG*kT*kT*eG) [compound 560132] , what value of % inhibition is listed for AR mRNA?
58

So what % inhibition did 586227 (kT*kG*kA*kT*kT*dT*dA*dA*dT*dG*dG*dT*dT*kG*k[5mC]*kA; antisense) [compound 586227] get with AR mRNA?
87

Source of measurements: patent USRE48461E1
